B1: MYBL2 (parent)
chain: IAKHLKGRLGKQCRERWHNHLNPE

Variants of: B1
Test: protein stability index of a GFP-peptide fusion (GPS, HEK-293T) (PSI 1-6); higher = more stable;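 further: lentivirally expressed fusions sorted by FACS into six bins by GFP to DsRed ratio, PSI derived from sequencing read proportions per bin multiplied by bin number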
Conditions: c terminus: a fixed tail appended
# protein stability index values compiled below
Number only, no unit.

>  <changes>
Q12M

>  <quantity>
protein stability index

>  <result.number>
1.92

$$$$
>  <changes>
Q12V

>  <quantity>
protein stability index

>  <result.number>
1.61

$$$$
>  <changes>
L5Y

>  <quantity>
protein stability index

>  <result.number>
1.86

$$$$

Ask: Supply measured protein stability index of "N22P" in your reply.
Reply: 1.35

Ask: Supply measured protein stability index of "E24D" in your reply.
Reply: 2.34

Ask: Supply measured protein stability index of "G10H" in your reply.
Reply: 1.35

Ask: Supply measured protein stability index of "L9E" in your reply.
Reply: 2.73

Ask: Supply measured protein stability index of "L5M" in your reply.
Reply: 1.72

Ask: Supply measured protein stability index of "N22K" in your reply.
Reply: 1.51

Ask: Supply measured protein stability index of "G7S" in your reply.
Reply: 2.39

Ask: Supply measured protein stability index of "E15C" in your reply.
Reply: 2.38
